protocol: Three-way crossover PK of ARV-471 API and ASD compositions, fed beagle dogs
Format: in vivo
cond: dog, plasma, 60 mg of API oral, fed condition, geometric mean
attribute.measured: AUC(0-t) (ng·h/mL)
Give bare numbers, in ng·h/mL.

Give its AUC(0-t) value. Item: O=C1CC[C@H](N2Cc3cc(N4CCN(CC5CCN(c6ccc([C@@H]7c8ccc(O)cc8CC[C@@H]7c7ccccc7)cc6)CC5)CC4)ccc3C2=O)C(=O)N1 [ARV-471]
5600

* * *

protocol: PK of ARV-110 API, i.v. injection vs oral capsule, fasted beagle dogs (absolute oral bioavailability)
Assay type: in vivo
cond: beagle, in vivo; API oral capsule 50 mg per dog, fasted condition, geometric mean
attribute.measured: Cmax
Answer as a quantity: numeral, then unit.

Give its Cmax value. Item: N#Cc1ccc(O[C@H]2CC[C@H](NC(=O)c3ccc(N4CCC(CN5CCN(c6cc7c(cc6F)C(=O)N(C6CCC(=O)NC6=O)C7=O)CC5)CC4)nn3)CC2)cc1Cl (stereo partly shown) [ARV-110]
10.7 ng/mL

Sourced from patent US12350268B2
